Data provenance: paper PMC12363518

Numbered stars: 1 amine (or outer) side, 2 acyl side, 3 side chain; on linkers, the order of the positions; unused ones are H or OH. Square brackets hold non-standard residues; d marks the D form. Peptide text beside a SMILES is read from it. X2 = O=C(c1ccc(N=Nc2ccc(N[*:1])cc2)cc1)[*:2]
recordedMetric: peak wavelength π–π* (nm)
Please give a number only; it is taken to be in nm.

CC(C)[C@H](NC(=O)CNC(=O)[C@@H]1CCCN1C(=O)[C@H](Cc1ccccc1)NC(=O)CNC(=O)[C@@H](NC(=O)CNC(=O)[C@@H]1CCCN1C(=O)[C@H](Cc1ccccc1)NC(=O)c1ccc(N=Nc2ccc(NC(=O)CNC(=O)[C@@H](NC(=O)CNC(=O)[C@@H]3CCCN3C(=O)[C@H](Cc3ccccc3)NC(=O)CNC(=O)[C@@H](NC(=O)CNC(=O)[C@@H]3CCCN3C(=O)[C@@H](N)Cc3ccccc3)C(C)C)C(C)C)cc2)cc1)C(C)C)C(=O)NCC(=O)O [F2-Azb-F2] (H-FPGVGFPGVG[X2]FPGVGFPGVG-OH)
354

[Q] Which peak wavelength π–π* value is on record for CC(C)[C@H](NC(=O)CNC(=O)[C@@H]1CCCN1C(=O)[C@H](Cc1ccccc1)NC(=O)CNC(=O)[C@@H](NC(=O)CNC(=O)[C@@H]1CCCN1C(=O)[C@H](Cc1ccccc1)NC(=O)c1ccc(N=Nc2ccc(NC(=O)CNC(=O)[C@@H](NC(=O)CNC(=O)[C@@H]3CCCN3C(=O)[C@H](Cc3ccccc3)NC(=O)CNC(=O)[C@@H](NC(=O)CNC(=O)[C@@H]3CCCN3C(=O)[C@@H](N)Cc3ccccc3)C(C)C)C(C)C)cc2)cc1)C(C)C)C(=O)NCC(N)=O [F2-Azb-F2-NH2] (H-FPGVGFPGVG[X2]FPGVGFPGVG-NH2) ?
[A] 356
